Hello, the source for this data is patent US9493455B2, in case you need it.

Reported inhibition at 0.1 µM values for the following compounds.
- Test Target: KDR (VEGFR2) (Homo sapiens, UniProt P35968)
- Construct: purchased Invitrogen
- Sequence (P35968 20-1356): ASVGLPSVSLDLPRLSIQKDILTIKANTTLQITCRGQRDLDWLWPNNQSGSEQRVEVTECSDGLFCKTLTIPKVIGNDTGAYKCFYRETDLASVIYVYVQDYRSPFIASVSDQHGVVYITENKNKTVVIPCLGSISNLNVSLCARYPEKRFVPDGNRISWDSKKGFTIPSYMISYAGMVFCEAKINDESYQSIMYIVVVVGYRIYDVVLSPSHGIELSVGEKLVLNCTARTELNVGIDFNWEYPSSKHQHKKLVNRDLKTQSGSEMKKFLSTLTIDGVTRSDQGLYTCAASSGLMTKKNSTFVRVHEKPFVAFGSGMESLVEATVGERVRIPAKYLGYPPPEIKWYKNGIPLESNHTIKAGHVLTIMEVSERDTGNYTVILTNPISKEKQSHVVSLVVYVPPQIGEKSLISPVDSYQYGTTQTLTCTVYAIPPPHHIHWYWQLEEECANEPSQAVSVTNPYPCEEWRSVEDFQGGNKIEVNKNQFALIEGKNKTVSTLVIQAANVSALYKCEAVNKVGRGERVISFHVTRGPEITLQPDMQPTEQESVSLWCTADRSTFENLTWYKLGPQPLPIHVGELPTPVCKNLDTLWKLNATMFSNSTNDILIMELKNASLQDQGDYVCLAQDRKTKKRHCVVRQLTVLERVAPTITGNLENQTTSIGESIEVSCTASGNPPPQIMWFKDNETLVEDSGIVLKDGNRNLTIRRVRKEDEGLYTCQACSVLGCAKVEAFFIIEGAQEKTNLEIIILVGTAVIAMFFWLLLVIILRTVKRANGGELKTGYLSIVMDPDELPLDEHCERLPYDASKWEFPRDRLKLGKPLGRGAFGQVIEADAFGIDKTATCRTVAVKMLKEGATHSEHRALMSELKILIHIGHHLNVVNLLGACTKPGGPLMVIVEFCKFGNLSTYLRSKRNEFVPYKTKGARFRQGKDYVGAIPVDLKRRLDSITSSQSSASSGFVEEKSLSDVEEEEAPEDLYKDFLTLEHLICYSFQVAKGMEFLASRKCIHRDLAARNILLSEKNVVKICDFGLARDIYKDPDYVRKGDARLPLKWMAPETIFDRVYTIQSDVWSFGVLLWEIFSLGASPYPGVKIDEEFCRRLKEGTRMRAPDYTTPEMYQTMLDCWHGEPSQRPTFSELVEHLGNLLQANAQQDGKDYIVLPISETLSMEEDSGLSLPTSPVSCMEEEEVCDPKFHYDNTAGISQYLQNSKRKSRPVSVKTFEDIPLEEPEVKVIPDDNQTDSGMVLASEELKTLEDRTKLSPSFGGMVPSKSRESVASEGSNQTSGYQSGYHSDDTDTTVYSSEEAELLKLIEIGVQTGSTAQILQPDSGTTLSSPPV
- Test Method Notes: In vitro kinase assay (Z′-LYTE)
- Format: biochemical
- Condition Set: read-out: % of inhibition of the kinase compared to the control

Observe how each entry below is paired with its result.
COC(=O)c1cc2cc(NCc3cc(NC(=O)c4ccc(CN5CCN(C)CC5)c(F)c4)ccc3C)cnc2[nH]1 [OR0864] = ≥ 50%
COC(=O)c1cc2cc(NCc3cc(NS(=O)(=O)c4cccc(C(F)(F)F)c4)ccc3C)cnc2[nH]1 [OR0882] = < 50%
COC(=O)c1cc2cc(NCc3ccc(C)c(NC(=O)c4ccc(CN5CCN(C)CC5)c(C(F)(F)F)c4)c3)cnc2[nH]1 [OR0622] = ≥ 50%
COC(=O)c1cc2cc(NCc3cc(NC(=O)Nc4cccc(C(F)(F)F)c4)ccc3C)cnc2[nH]1 [OR0603] = < 50%
COC(=O)c1cc2cc(NCc3cc(NC(=O)c4cccc(Br)c4)ccc3C)cnc2[nH]1 [OR0608] = ≥ 50%

Query: Hello, I am looking for reported inhibition at 0.1 µM with KDR (VEGFR2) (Homo sapiens, UniProt P35968) for COC(=O)c1cc2cc(NCc3cccc(C(=O)Nc4cccnc4)c3)cnc2[nH]1 [OR0916] . Could you help?
Reply: < 50%

Query: What do you get for COC(=O)c1cc2cc(NCc3cc(NS(=O)(=O)c4ccc(C)cc4)ccc3C)cnc2[nH]1 [OR0595] ?
Reply: < 50%

Query: Another: COC(=O)c1cc2cc(NCc3cc(NC(=O)c4cc(N5CCN(C)CC5)cc(C(F)(F)F)c4)ccc3C)cnc2[nH]1 [OR0698]
Reply: < 50%

Query: Quick one: COC(=O)c1cc2cc(NCc3cc(NC(=O)c4ccc5[nH]ccc5c4)ccc3C)cnc2[nH]1 [OR0617]
Reply: ≥ 50%

Query: Lookup COC(=O)c1cc2cc(NCc3cc(NC(=S)Nc4cccc(C(F)(F)F)c4)ccc3C)cnc2[nH]1 [OR1016]
Reply: < 50%

Query: How about COC(=O)c1cc2cc(NCc3cc(NC(=O)c4cc[nH]c4)ccc3C)cnc2[nH]1 [OR0975] ?
Reply: < 50%

Query: What about COC(=O)c1cc2cc(NCc3cc(NC(=O)c4ccc5c(c4)OCO5)ccc3C)cnc2[nH]1 [OR0615] ?
Reply: ≥ 50%

Query: Now consider COC(=O)c1cc2cc(NCc3cc(NC(=O)c4ccc(CN5CCN(C)CC5)c(C(F)(F)F)c4)ccc3F)cnc2[nH]1 [OR0816] .
Reply: ≥ 50%

Query: Also need COC(=O)c1cc2cc(NCc3cc(NC(=O)c4cccc(C)c4)ccc3C)cnc2[nH]1 [OR0607] , thanks.
Reply: ≥ 50%

Query: Also COC(=O)c1cc2cc(NCc3cc(NC(=O)c4ccc(CN5CCNCC5)c(C(F)(F)F)c4)ccc3C)cnc2[nH]1 [OR0613] , if possible.
Reply: ≥ 50%

Query: Next compound up: COC(=O)c1cc2cc(NCc3cc(NC(=O)c4cc(CN5CCN(C)CC5)cc(C(F)(F)F)c4)ccc3C)cnc2[nH]1 [OR0699]
Reply: ≥ 50%

Query: Now consider COC(=O)c1cc2cc(NCc3cc(NC(=O)c4ccc(C(F)(F)F)nc4)ccc3C)cnc2[nH]1 [OR0865] and answer again.
Reply: < 50%

Query: Same for COC(=O)c1cc2cc(NCc3cc(NC(=O)c4ccc(-c5csc(C)n5)cc4)ccc3C)cnc2[nH]1 [OR0620]
Reply: < 50%

Query: And what about the compound COC(=O)c1cc2cc(NCc3cc(NC(=O)c4cccc(C(F)(F)F)c4)ccc3C)cnc2[nH]1 [OR0606] ?
Reply: < 50%

Query: Then what about the compound COC(=O)c1cc2cc(NCc3cc(NC(=O)c4ccc(CN5CCN(C)CC5)c(C(F)(F)F)c4)ccc3C)cnc2[nH]1 [OR0512] ?
Reply: ≥ 50%

Query: And then COC(=O)c1cc2cc(NCc3cc(NC(=S)c4ccc(CN5CCN(C)CC5)c(C(F)(F)F)c4)ccc3C)cnc2[nH]1 [OR0626] , what is it?
Reply: < 50%

Query: What do we get for COC(=O)c1cc2cc(NCc3cccc(C(=O)NCc4cccc(C(F)(F)F)c4)c3)cnc2[nH]1 [OR1004] ?
Reply: < 50%

Query: Same lookup for COC(=O)c1cc2cc(NCc3cc(NC(=O)Nc4cccnc4)ccc3C)cnc2[nH]1 [OR0896] , please.
Reply: < 50%

Query: What do you get for COC(=O)c1cc2cc(NCc3cc(NC(=O)c4ccc(CN5CCC(N(C)C)C5)c(F)c4)ccc3C)cnc2[nH]1 (stereo not drawn) [OR0974] ?
Reply: ≥ 50%

Query: What about COC(=O)c1cc2cc(NCc3cc(NC(=O)c4ccc(Cn5cnc(C)c5)c(C(F)(F)F)c4)ccc3C)cnc2[nH]1 [OR0639] ?
Reply: ≥ 50%

Query: Item: COC(=O)c1cc2cc(NCc3cccc(C(=O)Nc4ccc(CN5CCN(C)CC5)c(C(F)(F)F)c4)c3)cnc2[nH]1 [OR0635]
Reply: ≥ 50%
